Measured pIC50 of individual entries
Tested on: HepG2
Assay: Antiproliferative activity against human HepG2 cells assessed as inhibition of cell growth incubated for 48 hrs by MTT assay
Format: functional, cell-based
Details: HepG2, 48 h
pIC50: −log10 of the molar value.

{"columns": ["chemical string", "target", "bound operator", "pIC50"],
 "data": [
  ["COc1cc(/C=N/Nc2nc(-c3cc(C(F)(F)F)cc(C(F)(F)F)c3)cs2)c(Br)c(Br)c1OC", "HepG2", "<", 4.00],
  ["COc1cc(/C=N/Nc2nc(-c3ccccc3)cs2)c(Br)c(Br)c1OC", "HepG2", "=", 4.47],
  ["Fc1ccc(/C=N/Nc2nc(-c3ccc(C(F)(F)F)cc3)cs2)cc1F", "HepG2", "=", 4.84],
  ["Fc1ccc(/C=N/Nc2nc(-c3ccccc3)cs2)cc1F", "HepG2", "<", 4.00],
  ["COc1cc(/C=N/Nc2nc(-c3ccc(Br)cc3)cs2)cc(Br)c1OC", "HepG2", "=", 4.19],
  ["COc1cc(/C=N/Nc2nc(-c3ccc(C(F)(F)F)cc3)cs2)c(Br)c(Br)c1OC", "HepG2", "<", 4.00],
  ["COc1cc(/C=N/Nc2nc(-c3cccc(Br)c3)cs2)cc(Br)c1OC", "HepG2", "=", 4.18],
  ["COc1ccccc1-c1csc(N/N=C/c2ccc(F)c(F)c2)n1", "HepG2", "<", 4.00],
  ["Fc1ccc(/C=N/Nc2nc(-c3ccc(F)c(F)c3)cs2)cc1F", "HepG2", "=", 4.58],
  ["COc1cc(/C=N/Nc2nc(-c3ccc(Br)cc3)cs2)c(Br)c(Br)c1OC", "HepG2", "<", 4.00]
]}
